# study.system: T1, human Notch1 NRR_Avi_His recombinant protein (human, UniProt P46531 1434-1737)
# T1 construct: Secreted from CHO-PACE cells; cleaved at S1 into an N-terminal ~26 kDa half (LNR-A, B, C, HD1) and a C-terminal ~12 kDa half (HD2 and tag) that stay associated non-covalently; written here as one chain; also called recombinant human Notch1 NRR; human Notch1 NRR immunogen
# T1 sequence: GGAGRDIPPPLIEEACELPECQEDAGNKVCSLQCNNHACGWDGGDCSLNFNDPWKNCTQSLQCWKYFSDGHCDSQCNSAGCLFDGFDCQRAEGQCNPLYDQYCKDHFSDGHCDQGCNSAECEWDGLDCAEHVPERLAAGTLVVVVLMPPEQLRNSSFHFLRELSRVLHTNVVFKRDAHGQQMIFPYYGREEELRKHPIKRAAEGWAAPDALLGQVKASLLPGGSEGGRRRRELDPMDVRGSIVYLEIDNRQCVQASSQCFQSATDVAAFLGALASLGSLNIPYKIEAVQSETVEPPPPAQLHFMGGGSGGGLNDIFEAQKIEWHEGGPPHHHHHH
# experimental.details: SPR (Biacore T100), antibody captured by anti-human IgG-Fc, NRR_Avi_His as analyte, 1:1 Langmuir model
readout.type: kon
Could you write the number and then its unit?

# query: kon of entry humanized 351 VH1.0/VL1.4 (antibody, human IgG1, V domains shown) VH: EVQLVESGGGLVQPGGSLRLSCAASGFTFSHYGMNWVRQAPGKGLEWVASISRSGSYIRYVDTVKGRFTISRDNAKNSLYLQMNSLRAEDTAVYYCAREGQFGDYFEYWGQGTLVTVSS VL: DIQMTQSPSSLSASVGDRVTITCRASQKISTNLHWYQQKPGKAPKLLIKYASQTISGVPSRFSGSGSGTDFTLTISSLQPEDFATYYCQQTNSWPLTFGGGTKVEIK
458000 M⁻¹ s⁻¹
